// growth lookup, one value per entry
- Tested on: OVCAR-4 ovarian
- Test summary: NCI-60 one-dose screen, 48 h (100 = growth as untreated, 0 = no growth, -100 = all killed)
- Condition info: 10 µM unless noted
The panel holds about 83,000 compounds, 20% with a hit somewhere; the sample as a whole holds those more often. Active and inactive are the calls of the source. Rule for the calls: active = growth percent below 10; inactive = the rest.

[[record]]
compound = "CC(=O)C(N)Cc1ccccc1 (stereo not given)"
property = "growth"
result = "99.1% (inactive)"


INPUT: Give the reported value of growth for this record: `O=C(O)C(F)F`
OUTPUT: 112% (inactive)

INPUT: Give the reported value of growth for this record: CCC(=O)C(CC(C)[N+](C)(C)C)(c1ccccc1)c1ccccc1 (stereo not given)
OUTPUT: 110% (inactive)

INPUT: Give the reported value of growth for this record: CC1OC(=O)C(C(C)C)NC(=O)C(C(C)C)OC(=O)C(C(C)C)NC(=O)C(C)OC(=O)C(C(C)C)NC(=O)C(C(C)C)OC(=O)C(C(C)C)NC(=O)C(C)OC(=O)C(C(C)C)NC(=O)C(C(C)C)OC(=O)C(C(C)C)NC1=O (stereo not given)
OUTPUT: -17% (active)

Measured values drawn from PubChem BioAssay (NCI) for this set.
